# Target desc: Fes (UniProt P07332)
# Sequence (P07332 whole entry, looked up): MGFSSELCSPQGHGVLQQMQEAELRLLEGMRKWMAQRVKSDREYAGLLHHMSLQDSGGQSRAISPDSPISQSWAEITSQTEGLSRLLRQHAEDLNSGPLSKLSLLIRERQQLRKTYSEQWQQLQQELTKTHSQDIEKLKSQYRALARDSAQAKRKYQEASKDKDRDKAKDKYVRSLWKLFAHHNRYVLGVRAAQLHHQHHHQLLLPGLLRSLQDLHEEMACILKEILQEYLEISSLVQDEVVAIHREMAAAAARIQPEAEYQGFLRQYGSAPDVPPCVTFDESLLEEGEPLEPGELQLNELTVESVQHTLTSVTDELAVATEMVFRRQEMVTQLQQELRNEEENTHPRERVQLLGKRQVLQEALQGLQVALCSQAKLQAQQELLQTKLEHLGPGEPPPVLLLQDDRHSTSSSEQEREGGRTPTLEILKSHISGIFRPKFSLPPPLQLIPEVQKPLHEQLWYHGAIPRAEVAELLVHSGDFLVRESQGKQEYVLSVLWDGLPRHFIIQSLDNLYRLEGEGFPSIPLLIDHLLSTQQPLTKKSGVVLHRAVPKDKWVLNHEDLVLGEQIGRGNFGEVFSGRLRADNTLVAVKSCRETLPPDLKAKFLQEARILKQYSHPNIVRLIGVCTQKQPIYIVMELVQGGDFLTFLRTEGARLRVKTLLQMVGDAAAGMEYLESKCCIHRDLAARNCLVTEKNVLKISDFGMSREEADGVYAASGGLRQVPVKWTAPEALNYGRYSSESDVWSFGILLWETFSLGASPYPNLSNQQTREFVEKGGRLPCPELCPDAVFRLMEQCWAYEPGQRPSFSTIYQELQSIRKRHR
# Experimental details: phosphorylation enrichment, bacterial display (enrichment ratio); higher = better substrate or ligand; peptides without Tyr show the background
Listed here: items and their measured phosphorylation enrichment.
Reported property: phosphorylation enrichment

>>> print(df.to_string())
                          sequence_input  result
 0              GLDGSYLLRDS [SH2D1A_Y29]   0.622
 1               YRIDHYLGKEM [G6PD_Y202]   0.909
 2            KNKKDYYDMYE [SLC26A3_Y526]   0.851
 3   RAFRHYLLKQK [SCN2A_Y1919_R1918H_YF]    1.59
 4             EGLKVYVNGTL [ADGRD1_Y183]    1.33
 5       WAFNLYDINKY [KCNIP3_Y174_D179Y]    1.24
 6        TLQNMYGCDVG [HLA-B_Y123_S121N]     1.2
 7        KLIETYSSKNF [PLP1_Y50_F51S_YF]   0.996
 8            VDFQPYRKHKF [TEX37_Y28_YF]   0.639
 9                 GEEIKYMLWLS [OTC_Y55]    1.28
10          TKEPKYEGAGS [KIAA1210_Y1615]   0.542
11                           TDGIAYEFRVI    1.34
12  EVESPYEVRDF [GIGYF2_Y1168_H1171R_YF]    1.71
13            QTENKYDSVSG [EIF2AK3_Y565]    1.13

----------
Measured SH2 binding enrichment, listed per entry for reference.
# Target desc: SHP2-C SH2;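 further: peptide library displayed on the E. coli surface as eCPX fusions, selected cells deep-sequenced, score is each peptide's frequency after selection divided by its frequency in the input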
# Experimental details: SH2 binding enrichment of the phosphorylated peptide, bacterial display (enrichment ratio); higher = better substrate or ligand; peptides without Tyr show the background
Reported property: SH2 binding enrichment

>>> df
                         sequence_input  result
 0              SLIDGYYRLTA [JAK2_Y372]    6.44
 1        LKGQVYILGGE [ASS1_Y359_R363G]   0.812
 2         VKPENDRRLDI [VHL_Y175_Y175D]   0.718
 3            TESNNYIYKTL [FAM83B_Y637]    1.65
 4             DKATEYIQFMR [MAX_Y70_YF]   0.608
 5            RAYRRYLLKQK [SCN2A_Y1919]   0.573
 6          FIGRIYLFLTK [GARS1_Y414_YF]    1.22
 7  SFTDPYAQPSL [KMT2D_Y2378_P2382S_YF]   0.759
 8          AHPGEYGAEAL [HBA1_Y25_A22P]   0.707
 9           IIEDPYFGNDS [ACP1_Y132_YF]   0.584
10       SSQILYKLEQS [THADA_Y701_V699I]   0.533
11      KIIRWYVSSEG [ANK2_Y3907_R3906W]    1.51
12        ADNSAYLMGLN [MYH7_Y386_K383N]   0.723
13       GHLYAYDWIRI [BEST1_Y227_S231R]    1.31
14       KLIETYSSKNF [PLP1_Y50_F51S_YF]   0.472
15        EIASHYRHLLR [ZBTB46_Y14_T11A]   0.794
16        DPLLTYLFPPK [LMNA_Y481_R482L]    1.19
17         LKKLEYLNLPL [LRRC6_Y70_A74P]     1.4
18      LAETSYVIVLE [MAGEA1_Y276_K278I]   0.983
19             MPLTEYLKRIK [CNGB3_Y200]    0.75
20          LQLLGYRPVFS [CHST6_Y358_YF]   0.626
21              YRIDHYLGKEM [G6PD_Y202]   0.665
22          TESALYGCTVL [KIAA1804_Y724]   0.916
23       SLIEHYEPSET [PLCD1_Y258_R257H]   0.806
24         EFQLPYFNMVP [BMPR1A_Y457_YF]    0.95
25            KEAALYPHLPP [SQSTM1_Y383]   0.708
26         RGNKEYKEEKR [LENG1_Y96_E97K]    1.42
27          AHAGEYGVEAL [HBA1_Y25_A27V]    0.79
28     TEAEPYYCSLR [NPHS1_Y1138_R1140C]    0.73

----------
# Target desc: MERTK (UniProt Q12866)
# Sequence (Q12866 whole entry, looked up): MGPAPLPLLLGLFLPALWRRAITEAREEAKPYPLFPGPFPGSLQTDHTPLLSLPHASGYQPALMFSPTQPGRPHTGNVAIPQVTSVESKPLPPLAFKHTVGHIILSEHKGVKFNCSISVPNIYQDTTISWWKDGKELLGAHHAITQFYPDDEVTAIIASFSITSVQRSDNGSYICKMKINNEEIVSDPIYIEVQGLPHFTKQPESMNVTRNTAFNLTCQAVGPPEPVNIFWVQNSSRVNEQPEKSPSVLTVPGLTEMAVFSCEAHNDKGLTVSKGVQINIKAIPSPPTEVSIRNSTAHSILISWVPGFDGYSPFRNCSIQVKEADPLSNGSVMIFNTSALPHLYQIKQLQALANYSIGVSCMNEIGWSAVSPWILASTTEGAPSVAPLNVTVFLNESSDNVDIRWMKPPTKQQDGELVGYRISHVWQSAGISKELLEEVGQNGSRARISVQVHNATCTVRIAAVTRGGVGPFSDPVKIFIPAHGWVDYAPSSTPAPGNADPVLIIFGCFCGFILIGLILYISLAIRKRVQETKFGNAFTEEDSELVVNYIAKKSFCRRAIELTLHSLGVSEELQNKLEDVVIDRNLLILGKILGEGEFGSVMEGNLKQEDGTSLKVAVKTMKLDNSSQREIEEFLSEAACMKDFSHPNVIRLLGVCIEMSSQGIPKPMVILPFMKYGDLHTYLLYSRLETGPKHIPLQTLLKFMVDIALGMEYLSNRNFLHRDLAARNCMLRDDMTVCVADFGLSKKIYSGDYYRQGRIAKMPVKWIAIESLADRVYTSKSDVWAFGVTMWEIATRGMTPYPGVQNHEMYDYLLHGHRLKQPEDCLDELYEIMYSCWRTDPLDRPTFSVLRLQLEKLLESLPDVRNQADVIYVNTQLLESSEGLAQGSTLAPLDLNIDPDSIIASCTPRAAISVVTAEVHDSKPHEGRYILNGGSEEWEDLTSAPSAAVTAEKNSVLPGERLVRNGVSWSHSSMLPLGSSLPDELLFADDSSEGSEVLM
# Experimental details: phosphorylation enrichment, bacterial display (enrichment ratio); higher = better substrate or ligand; peptides without Tyr show the background
Reported property: phosphorylation enrichment

In [3]: df
Out[3]:
                        sequence_input  result
0  FFHCTYKQRMI [CLEC12A_Y242_K244Q_YF]   0.517
1          RFLRGYRQDAF [HLA-A_Y137_YF]   0.799
2      FQCLRYIKQLG [SAMHD1_Y146_R143C]   0.423
3        DHPSEYAARQL [ANXA13_Y90_R86H]   0.453
4          TESALYGCTVL [KIAA1804_Y724]    1.46
5           TSQSQYFSFRE [CCDC170_Y323]   0.818
6              PLRADYLIARV [HLCS_Y635]   0.717

----------
# Tested on: c-Src
# Experimental details: phosphorylation enrichment, bacterial display (enrichment ratio); higher = better substrate or ligand; peptides without Tyr show the background
Reported property: phosphorylation enrichment

>>> df
                        sequence_input           reported_property  result
 0  SDGHEYIFVDR [PDGFRB_Y579_P584R_YF]  phosphorylation enrichment   0.517
 1            FHKALYTVRSY [PDE6C_Y266]  phosphorylation enrichment   0.582
 2     GGQVFHNSEYG [FLT4_Y1333_Y1333H]  phosphorylation enrichment   0.425
 3         LGGAMYFLEAE [PKHD1_Y452_YF]  phosphorylation enrichment    1.01
 4             PLRADYLIARV [HLCS_Y635]  phosphorylation enrichment   0.582
 5       TDTAAYEERLR [SPTB_Y474_V478L]  phosphorylation enrichment   0.478
 6         GQSKGYRPKLY [SIPA1L3_Y1376]  phosphorylation enrichment   0.387
 7      LLVVLYKYRCF [PSEN1_Y154_Y159F]  phosphorylation enrichment   0.523
 8             PSQRRYVYYYS [PTEN_Y174]  phosphorylation enrichment   0.872
 9      ARLEFCENEKK [IRS1_Y47_Y47C_YF]  phosphorylation enrichment   0.484
10       SNKLHYQLEQE [PDPR_Y110_Y109H]  phosphorylation enrichment   0.443
11            LLAGLYRGQAL [FGFR4_Y390]  phosphorylation enrichment   0.452
12      VDTGVYAVPPP [BCAR1_Y410_S407T]  phosphorylation enrichment    4.89
13         MCDSHYLESRF [CLK1_Y56_S61F]  phosphorylation enrichment   0.443

----------
# Target desc: FGFR3 (UniProt P22607)
# Sequence (P22607 whole entry, looked up): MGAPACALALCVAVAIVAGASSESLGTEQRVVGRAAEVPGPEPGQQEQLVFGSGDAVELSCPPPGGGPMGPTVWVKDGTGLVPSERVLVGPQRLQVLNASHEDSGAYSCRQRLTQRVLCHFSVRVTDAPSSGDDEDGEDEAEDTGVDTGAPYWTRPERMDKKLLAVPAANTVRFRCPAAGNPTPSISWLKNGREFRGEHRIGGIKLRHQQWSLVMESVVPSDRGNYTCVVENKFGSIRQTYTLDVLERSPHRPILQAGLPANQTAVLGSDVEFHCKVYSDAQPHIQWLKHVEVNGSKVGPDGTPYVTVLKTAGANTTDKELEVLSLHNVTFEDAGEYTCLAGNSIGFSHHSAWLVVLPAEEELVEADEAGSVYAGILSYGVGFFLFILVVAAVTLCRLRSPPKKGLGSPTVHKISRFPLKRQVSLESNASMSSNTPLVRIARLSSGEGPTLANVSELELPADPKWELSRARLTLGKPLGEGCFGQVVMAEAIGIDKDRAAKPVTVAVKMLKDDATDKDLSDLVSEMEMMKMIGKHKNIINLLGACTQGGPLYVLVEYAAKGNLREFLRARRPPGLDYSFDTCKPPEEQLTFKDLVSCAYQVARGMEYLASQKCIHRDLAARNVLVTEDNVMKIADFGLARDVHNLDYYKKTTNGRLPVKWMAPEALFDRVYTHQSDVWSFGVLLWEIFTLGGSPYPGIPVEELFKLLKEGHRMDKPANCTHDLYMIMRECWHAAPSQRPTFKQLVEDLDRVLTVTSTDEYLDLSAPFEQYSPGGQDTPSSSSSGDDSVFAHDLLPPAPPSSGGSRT
# Experimental details: phosphorylation enrichment, bacterial display (enrichment ratio); higher = better substrate or ligand; peptides without Tyr show the background
phosphorylation enrichment listing for selected sequences.
Reported property: phosphorylation enrichment

>>> df
                          sequence_input  result
 0              TTPGPYRSIFF [MPG_Y71_YF]    1.07
 1      CTSIHYNFMCN [TP53_Y234_T231S_YF]   0.571
 2               YRIDHYLGKEM [G6PD_Y202]   0.654
 3     SIKDKHVTALF [KCNH2_Y611_Y611H_YF]   0.435
 4           HFGNNYRDVLQ [MACC1_Y803_YF]    0.68
 5         NYYDLYGGEKF [PTPN11_Y66_D61N]    11.7
 6               YAREGYSALPQ [SARS2_Y52]    0.52
 7       MSSHHCDYKKY [ZNF445_Y428_Y428C]   0.437
 8                ESPGLYGFLNV [BCR_Y910]   0.646
 9        KRRGPYEMSPS [PLPP7_Y172_T174M]   0.377
10               SARHHYESLQT [BIN1_Y157]   0.396
11  AAVDTVCRHNF [HLA-DRB1_Y107_Y107V_YF]   0.533
12        NSNAAYEESHF [LRIF1_Y714_Q716E]   0.614
13                RLNAIYQNNLT [GSR_Y158]   0.665
14         NYSKMYCNPDA [KNL1_Y489_A486S]   0.521
15         EATKGHLDDPT [G6PD_Y322_Y322H]   0.664
16     FRIGPYQPSVP [MATR3_Y784_N787S_YF]   0.616
17         RLQAAYNLVKR [PFKM_Y103_R100Q]   0.489
18          SVETPYVSVTF [NDRG2_Y47_G48V]   0.936
19        LGGSPYPRVPV [FGFR1_Y701_G703R]   0.471
20               FDSPFYRDSLP [TSC1_Y508]   0.484
21      GRLPEYNTPIA [CCDC151_Y542_R545P]   0.397
22       RHPFFFAPELL [ALB_Y174_Y174F_YF]    1.64
23           AHAGKYGAEAL [HBA1_Y25_E24K]    0.42
24               GEVLVYVEDPA [FLNA_Y319]    0.81
25        DLQDEYDFKRK [STAT1_Y170_C174R]   0.643
26        NHFKIYNLFAE [PTEN_Y68_C71Y_YF]    1.36
27              YISLIYTNYEA [GSTP1_Y109]     3.6
28        WKKKIYEESST [MOCS2_Y170_E168K]   0.813
